- System: SN12C renal
- METHOD_NOTES: NCI tumour cell line growth inhibition, 48 h; in the data active means GI50 below about 0.43 µM; inactive means the rest
Thanks in advance; please answer with one of these: 1.0 for active, 0.0 for inactive

Q: Assay outcome for COc1ccc(-c2cc(-c3ccc(Nc4nc(Nc5ccccc5)nc(Nc5ccc(Cl)cc5)n4)cc3)nc(N)n2)cc1 : what was it?
Ans: 0.0

Q: What classification did C#Cc1cccc(Nc2ncnc3cc(NC(=O)CCl)ccc23)c1 end up with in this test?
Ans: 0.0

Q: // outcome(item) with item = CCOCC1(COCC)CCC(c2[nH]ncc2CN(C)CCNC)CC1
Ans: 0.0

Q: I'd appreciate the recorded outcome for O=C1NC(=NCc2ccccc2Cl)S/C1=C\c1ccc2ncccc2c1 from this test.
Ans: 0.0

Q: What outcome does the record of this test show for O=C1Nc2ccc(Cl)cc2/C1=C\c1c(-c2ccc(Cl)cc2)nc2sc(C3CC3)nn12 ?
Ans: 0.0

Q: # fetch the recorded call for COC1(CC[C@@H](C)COC2OC(CO)C(O)C(O)C2O)O[C@H]2C[C@H]3[C@@H]4CC=C5C[C@@H](OC6OC(CO)C(OC7OC(C)C(O)C(O)C7O)C(O)C6OC6OC(C)C(O)C(O)C6O)CC[C@]5(C)[C@H]4CC[C@]3(C)[C@H]2[C@@H]1C (some centres not stated) here
Ans: 0.0

Q: What did this assay record as the result for C=C1C[C@H]2C=Nc3cc(OCCCOc4cc5c(cc4OC)C(=O)N4CC(=C)C[C@H]4C=N5)c(OC)cc3C(=O)N2C1 ?
Ans: 1.0
